B1: WDFY2 (parent)
chain: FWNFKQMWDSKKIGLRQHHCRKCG

# Variants of: B1
# protocol-details: protein stability index of a GFP-peptide fusion (GPS, HEK-293T) (PSI 1-6); higher = more stable;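 further: lentivirally expressed fusions sorted by FACS into six bins by GFP to DsRed ratio, PSI derived from sequencing read proportions per bin multiplied by bin number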
# measurement-conditions: c terminus: a fixed tail appended
Use 2 as the dividing line for protein stability index, with the line itself on the Criterion met side and lower values as Criterion not met.

[[record]]
mutant_id = "C20L"
assigned_class = "Criterion met"

[[record]]
mutant_id = "C20M"
assigned_class = "Criterion met"

[[record]]
mutant_id = "K12N"
assigned_class = "Criterion not met"

[[record]]
mutant_id = "W8H"
assigned_class = "Criterion met"

[[record]]
mutant_id = "N3Y"
assigned_class = "Criterion not met"

[[record]]
mutant_id = "F1A"
assigned_class = "Criterion met"

[[record]]
mutant_id = "N3S"
assigned_class = "Criterion met"

[[record]]
mutant_id = "G24N"
assigned_class = "Criterion not met"

[[record]]
mutant_id = "F1W"
assigned_class = "Criterion met"

[[record]]
mutant_id = "M7I"
assigned_class = "Criterion not met"


Task: Given "F1D" , state whether its protein stability index is at least 2.
Output: Criterion met

Task: Given "Q17K" , state whether its protein stability index is at least 2.
Output: Criterion not met

Task: Given "K12Q" , state whether its protein stability index is at least 2.
Output: Criterion met

Task: Given "W8E" , state whether its protein stability index is at least 2.
Output: Criterion met

Task: Given "W8P" , state whether its protein stability index is at least 2.
Output: Criterion met

Task: Given "K22Y" , state whether its protein stability index is at least 2.
Output: Criterion not met

Task: Given "S10I" , state whether its protein stability index is at least 2.
Output: Criterion met

Task: Given "G24D" , state whether its protein stability index is at least 2.
Output: Criterion met

Task: Given "R16K" , state whether its protein stability index is at least 2.
Output: Criterion not met

Task: Given "C23T" , state whether its protein stability index is at least 2.
Output: Criterion met

Task: Given "W8M" , state whether its protein stability index is at least 2.
Output: Criterion met

Task: Given "F1G" , state whether its protein stability index is at least 2.
Output: Criterion met

Task: Given "C20G" , state whether its protein stability index is at least 2.
Output: Criterion met

Task: Given "K11M" , state whether its protein stability index is at least 2.
Output: Criterion not met

Task: Given "W8Q" , state whether its protein stability index is at least 2.
Output: Criterion met

Task: Given "F4E" , state whether its protein stability index is at least 2.
Output: Criterion met
